test: chemical genetic growth profiling, strain panel (AID 1159580);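 also: tested at 20 µM; growth read once vehicle control cultures reached saturation at 30 °C; 1 = growth at the plate median or of vehicle wells; lower values mean less growth of the strain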; details: S. cerevisiae deletion strains, growth OD, locus YMR307W, strain GAS1, stronger effect = lower value
The whole screen tested about 5,500 compounds, of which about 2,000 (36%) were called active. Not shown: some 18% with an inconclusive outcome. Some of the results follow.
Result type: normalized growth
I'd appreciate a reply containing only the number, no unit.

Please report the measured normalized growth for Cc1cc(C2CCCCC2)n(O)c(=O)c1
0.146

Please report the measured normalized growth for Cc1[nH]ccc2c1[nH]c1cc(=O)ccc12
1.09

Please report the measured normalized growth for COc1c(C(C)C)oc2cc3oc(=O)ccc3cc12
0.743

Please report the measured normalized growth for COc1cc(OC)c(/C=C2/C(=O)Nc3ccccc32)c(OC)c1
1.01

Please report the measured normalized growth for COc1cc(OC)c2ccc(=O)oc2c1
1.02

Please report the measured normalized growth for CO[C@@]1(NC(=O)C(C(=O)O)c2ccc(O)cc2)C(=O)N2C(C(=O)O)=C(CSc3nnnn3C)CO[C@@H]21 (some centres not stated)
0.971

Please report the measured normalized growth for COc1ccc2c3c1OC1C(O)CC=C4C(C2)N(C)CCC431 (configuration not stated)
0.962

###

assay: chemical genetic growth profiling, strain panel (AID 1159580);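 also: tested at 20 µM; growth read once vehicle control cultures reached saturation at 30 °C; 1 = growth at the plate median or of vehicle wells; lower values mean less growth of the strain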; conditions: S. cerevisiae deletion strains, growth OD, locus YJL092W, strain hpr5, stronger effect = lower value
Out of some 5,500 compounds screened, about 2,000 (36%) were called active. Roughly 18% stayed inconclusive and do not appear here. The list shows a part of the results.
Result type: normalized growth
I'd appreciate a reply containing only the number, no unit.

Please report the measured normalized growth for CNC(=O)Oc1cccc2c1OC(C)(C)O2
1

Please report the measured normalized growth for CC(=O)OCC1=C(C(=O)O)N2C(=O)[C@@H](NC(=O)Cc3cccs3)[C@H]2SC1
1.01

Please report the measured normalized growth for COc1cc(OC)c2ccc(=O)oc2c1
0.972

Please report the measured normalized growth for CC(C)(C)NCC(O)c1cc(O)cc(O)c1 (centres undefined)
0.99

Please report the measured normalized growth for CCOC(=O)c1c(C)cc(OC)cc1O
0.96

Please report the measured normalized growth for CC(C)(C)NCC(O)c1cc(Cl)c(N)c(Cl)c1 (centres undefined)
0.997

Please report the measured normalized growth for O=c1ccc2c(O)c3ccoc3cc2o1
0.983

Please report the measured normalized growth for C[C@]12CCC3c4ccc(O)cc4CCC3C1C[C@@H](O)[C@@H]2O (some centres undefined)
1.02

Please report the measured normalized growth for NC(=NCCC[C@H](N)C(=O)O)N[N+](=O)[O-]
1.02

Please report the measured normalized growth for CCCCCCC(C)OC(=O)COc1ccc(Cl)cc1Cl (centres undefined)
0.994

Please report the measured normalized growth for C[C@]12CCC3c4ccc(OS(=O)(=O)O)cc4CCC3C1CC[C@H]2O (some centres undefined)
0.978

Please report the measured normalized growth for CC(C)c1c(O)ccc2c1CCC1C(C)(C)CCC[C@]21C (some centres undefined)
0.926

Please report the measured normalized growth for COc1ccccc1/C=C\C(=O)O
1

Please report the measured normalized growth for C[C@@H]1CC[C@@]2(OC1)O[C@H]1CC3C4CC[C@H]5C[C@@H](O)CC[C@]5(C)C4CC[C@]3(C)[C@H]1[C@@H]2C (some centres undefined)
0.99

Please report the measured normalized growth for CCCCC1C(=O)N(c2ccccc2)N(c2ccc(O)cc2)C1=O (centres undefined)
1.01

Please report the measured normalized growth for COC1=CC(=O)C(C(=O)c2ccccc2)=CC1=O
0.968

Please report the measured normalized growth for OCC(O)C(O)C(O)C(O)C(O)CO (centres undefined)
0.993

Please report the measured normalized growth for CN1C[C@H](C(=O)N[C@]2(C)O[C@@]3(O)[C@@H]4CCCN4C(=O)[C@H](Cc4ccccc4)N3C2=O)C[C@@H]2c3cccc4[nH]cc(c34)C[C@H]21
0.985

Please report the measured normalized growth for O=c1ccc2cc(OC3OC(CO)C(O)C(O)C3O)c(O)cc2o1 (centres undefined)
0.981
